target: ADAM protein (Homo sapiens)
Sequence (Q9UKQ2 199-495): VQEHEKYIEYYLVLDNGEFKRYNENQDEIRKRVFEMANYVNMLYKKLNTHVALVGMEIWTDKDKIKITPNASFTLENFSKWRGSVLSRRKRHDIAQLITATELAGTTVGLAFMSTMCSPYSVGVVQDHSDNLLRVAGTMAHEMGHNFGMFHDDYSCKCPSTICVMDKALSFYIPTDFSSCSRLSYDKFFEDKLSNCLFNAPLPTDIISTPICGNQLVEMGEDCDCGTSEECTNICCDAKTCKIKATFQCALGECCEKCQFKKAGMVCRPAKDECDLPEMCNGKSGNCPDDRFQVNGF
readout: IC50 (µM)

[[record]]
compound = "CCCCC[C@H](CC(=O)NO)C(=O)N[C@H](C(=O)N1CCC[C@H]1CO)C(C)C [actinonin]"
value_reported = 600

